# Test target: CDK4/cyclin D3 (Homo sapiens, UniProt P11802)
# Sequence (P11802 whole entry): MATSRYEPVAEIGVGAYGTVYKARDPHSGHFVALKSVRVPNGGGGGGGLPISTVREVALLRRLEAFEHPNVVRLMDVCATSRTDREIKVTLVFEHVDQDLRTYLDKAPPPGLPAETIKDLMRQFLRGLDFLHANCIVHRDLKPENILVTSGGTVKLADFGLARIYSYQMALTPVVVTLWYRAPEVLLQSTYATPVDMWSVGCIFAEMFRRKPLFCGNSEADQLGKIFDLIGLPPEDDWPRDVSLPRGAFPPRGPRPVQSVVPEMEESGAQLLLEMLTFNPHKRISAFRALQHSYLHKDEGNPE
# Sequence (P30281 whole entry partner): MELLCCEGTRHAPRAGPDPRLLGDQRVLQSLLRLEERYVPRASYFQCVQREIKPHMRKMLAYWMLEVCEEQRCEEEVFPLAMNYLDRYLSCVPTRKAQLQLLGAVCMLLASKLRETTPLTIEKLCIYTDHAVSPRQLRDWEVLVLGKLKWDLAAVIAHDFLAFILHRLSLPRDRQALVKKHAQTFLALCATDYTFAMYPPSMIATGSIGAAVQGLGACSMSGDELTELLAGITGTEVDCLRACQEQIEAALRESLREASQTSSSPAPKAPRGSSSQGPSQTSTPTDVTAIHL
# Measurement protocol: Human CDK4/cyclin D3 inhibitory activity (QS S Assist CDK4/Cyclin D3_FP Kit, IMAP fluorescent polarization)
# Condition parameters: read-out: CDK4 Activity symbol
# Protocol: Human CDK4/Cyclin D3 Inhibitory Activity Each compound was analyzed for CDK4/cyclin D3 inhibitory activity with an assay kit (QS S Assist CDK4/Cyclin D3_FP Kit, available from Carna Biosciences, Inc.). […] Specifically, the kinase activity is determined through quantification of a variation in fluorescent polarization caused by binding of a kinase-phosphorylated fluorescent substance to an IMAP-binding reagent. […]
Some compounds, each annotated with its measured IC50.

>>> result("C[C@@H](O)c1cc2cnc(Nc3ccc(CN4CCN(C)CC4)cn3)nc2c(N2CCCCCC2)n1 [Compound 158]")
"< 10 nM"
>>> result("C[C@@H](O)c1cc2cnc(Nc3ccc4c(n3)CCN(CC#N)C4)nc2c(N2CCCCC2)n1 [Compound 196]")
"10 to 100 nM"
>>> result("C[C@@H](O)c1cc2cnc(Nc3ccc4c(n3)CCN(C(=O)CN3CC[C@H](O)C3)C4)nc2c(N2C3CCC2CC3)n1 [Compound 233]")
"< 10 nM"
>>> result("Cc1nc(Nc2ncc3cc([C@@H](C)O)nc(N4CCOC[C@H]4C)c3n2)ccc1N1CCNCC1 [Compound 297]")
"< 10 nM"
>>> result("C[C@@H](O)c1cc2cnc(Nc3ccc(CN4CCN(C)CC4)cn3)nc2c(N2C3CCC2CC3)n1 [Compound 143]")
"< 10 nM"

Fill in the blank: the reported IC50 of C[C@@H](O)c1cc2cnc(Nc3ccc(O[C@H]4CCCNC4)cn3)nc2c(N2CC[C@@H](F)C2)n1 [Compound 250] is ____. < 10 nM

Fill in the blank: the reported IC50 of C[C@@H](O)c1cc2cnc(Nc3ccc4c(n3)CCN(C(=O)CN3CCC3)C4)nc2c(N2CCCCC2)n1 [Compound 270] is ____. < 10 nM

Fill in the blank: the reported IC50 of C[C@@H](O)c1cc2cnc(Nc3ccc(CN4CCN(CCO)CC4)cn3)nc2c(N2CC3CC3C2)n1 (stereo partly shown) [Compound 104] is ____. < 10 nM

Fill in the blank: the reported IC50 of C[C@@H](O)c1cc2cnc(Nc3ccc(OC4CCN(CCO)CC4)cn3)nc2c(N2CCCCC2)n1 [Compound 165] is ____. < 10 nM

Fill in the blank: the reported IC50 of OCc1cc2cnc(Nc3ccc(N4CCNCC4)cn3)nc2c(-c2ccccc2)n1 [Compound 10] is ____. 10 to 100 nM
